Taken from ChEMBL document CHEMBL1201862.

System: SN12C
Assay: NCI tumour cell line growth inhibition, 48 h
Structures can show the parent of a compound that is named as a salt. Active and inactive are the calls of the source. No stated cut-off is given here; in the data, active = GI50 up to about 1.1 µM and inactive = higher. Non-standard residues stand in square brackets, D forms with d. Residues, ends and D or L forms follow the SMILES beside them. *: point of attachment. Ac5c = NC1(C(=O)O)CCCC1; Boc = CC(C)(C)OC(=O)*; tBu = CC(C)(C)*
Possible outcomes: active, inactive

{"Compound": "Cc1nc2c(cc1C(=O)N/N=C/c1ccc([N+](=O)[O-])cc1)c(=O)n(C)c(=O)n2C", "Assigned class": "inactive"}
{"Compound": "O=C1/C(=C/c2ccc3c(c2)OCO3)CCC1CN1CCOCC1 (configuration not stated)", "Assigned class": "inactive"}
{"Compound": "O=C(CCc1ccc(O)c(O)c1)NCCc1cc(O)cc(O)c1", "Assigned class": "inactive"}
{"Compound": "O=C1C=CC(=O)c2c1cc([N+](=O)[O-])c1ccoc21", "Assigned class": "inactive"}
{"Compound": "CC(=O)NC1C(OCc2ccccc2)OC(CO)C(O)C1OCC(=O)NC(C)C(=O)NC(CCC(=O)Nc1ccc2c(c1)CN1C(=O)c3ccccc3C1=N2)C(N)=O (configuration not stated)", "Assigned class": "inactive"}
{"Compound": "COc1cc2c(SCCN(C)C)nc3ccccc3c2c2ccccc12", "Assigned class": "inactive"}
{"Compound": "O=C(Nc1ccc(Cl)cc1)[C-](C(=O)c1ccc(Br)cc1)[n+]1cccc(-c2ccc(Cl)cc2)n1", "Assigned class": "inactive"}
{"Compound": "O=C1c2ccsc2C(=O)c2sc(CO)cc21", "Assigned class": "active"}
{"Compound": "CC(C)C(C/C=C1/CC(CO)(COC(=O)C2CCCCC2)OC1=O)C(C)C (configuration not stated)", "Assigned class": "inactive"}
{"Compound": "O=c1c2ncn(C3CC(O)C(CO)O3)c2nnn1Cc1ccccc1[N+](=O)[O-] (configuration not stated)", "Assigned class": "inactive"}
{"Compound": "N=c1oc2c(O)c(O)ccc2cc1C(N)=O", "Assigned class": "inactive"}
{"Compound": "Cc1cccc2c1CC(Cc1ccccc1C(=O)O)C2=O (configuration not stated)", "Assigned class": "inactive"}
{"Compound": "CCOc1ccc2nc(NC(NC(=O)c3cccnc3)(C(F)(F)F)C(F)(F)F)sc2c1", "Assigned class": "inactive"}
{"Compound": "CC(OC(C)(C)C)C(NC(=O)C(CCCCNC(=O)OC(C)(C)C)NC(=O)C(Cc1c[nH]c2ccccc12)NC(=O)C(N)Cc1ccccc1)C(=O)NC(Cc1ccccc1)C(=O)NC1(C(=O)O)CCCC1 (configuration not stated) (H-FWK(Boc)T(tBu)F[Ac5c]-OH; configuration not given here)", "Assigned class": "inactive"}
{"Compound": "Cc1nn(-c2ccccn2)c2c1C(SC#N)=C(C=O)CC2", "Assigned class": "inactive"}
{"Compound": "C=C1C(=O)O[C@H]2[C@H]1[C@H](OC(=O)/C(C)=C\\C)C[C@]1(CO1)[C@@H]1[C@H](OC(C)=O)C=C(C)[C@]21O [EUPAROTIN ACETATE]", "Assigned class": "inactive"}
{"Compound": "Cc1cn(C2CC(CCCO)C(CO)O2)c(=O)[nH]c1=O (configuration not stated)", "Assigned class": "inactive"}
{"Compound": "COc1ccc(OC)c(/C=C2\\CCc3ccccc3C2=O)c1", "Assigned class": "inactive"}
{"Compound": "C[N+](C)(C)CC(=O)N/N=C(\\C(=O)NC1=C(Cl)C(=O)c2ccccc2C1=O)C(C#N)c1nc(-c2ccc([N+](=O)[O-])cc2)cs1 (configuration not stated)", "Assigned class": "inactive"}
{"Compound": "CC(=O)OC1[C@@H](OC(C)=O)CN(OCc2ccccc2)C[C@H]1OC(C)=O (some centres not stated)", "Assigned class": "inactive"}
{"Compound": "Cc1cn(C2CC(O)C(CO[Si](C)(C)C(C)(C)C)OC2OC(C)C)c(=O)[nH]c1=O (configuration not stated)", "Assigned class": "inactive"}
{"Compound": "O=C(C#Cc1ccccc1)Nc1ccccc1CC(c1c[nH]c2ccccc12)c1c[nH]c2ccccc12", "Assigned class": "inactive"}
{"Compound": "CCN(CC)CCn1c(=O)c2cccnc2n2c3c(=O)n(C)c(=O)n(C)c3nc12", "Assigned class": "inactive"}
{"Compound": "Cc1c2cc[n+](C)cc2c(C)c2c1[nH]c1ccc(Oc3ccccc3)cc12", "Assigned class": "active"}
{"Compound": "C[C@@H]([C@H]1CC[C@@]2(C)[C@@H]3CC[C@@H]4C(=CC3=CC[C@]12C)CC[C@H](N(C)C)C4(C)C)N(C)C [BUXAMINE A]", "Assigned class": "inactive"}
{"Compound": "CCOC(=O)c1sc2c(c1OC(=O)c1ccc(Cl)cc1Cl)c(=O)n(-c1ccccc1)c(=S)n2-c1ccccc1", "Assigned class": "inactive"}
{"Compound": "Cc1ccc(/C=C(\\C#N)c2ccccc2)cc1", "Assigned class": "inactive"}
{"Compound": "CCOC(=O)N[C@@H]1C(CC(=O)OC)O[C@H]2OC(C)(C)O[C@H]21 (some centres not stated)", "Assigned class": "inactive"}
{"Compound": "CCOC(=O)C1=CNC2=N[C@H]3CCCC[C@@H]3N2C1=O", "Assigned class": "inactive"}
{"Compound": "CN1[C@@H]2C[C@@H](OC(=O)[C@H](CO)c3ccccc3)C[C@H]1[C@@H]1O[C@@H]12 [SCOPOLAMINE HYDROBROMIDE]", "Assigned class": "inactive"}
{"Compound": "CCOC(=O)[C@H]1Nc2ccc(Cl)cc2[C@H]2CCC[C@@H]12", "Assigned class": "inactive"}
{"Compound": "CC(C)CC1[C@@H](OCc2ccccc2)COS(=O)N1Cc1ccccc1 (some centres not stated)", "Assigned class": "inactive"}
{"Compound": "Cc1cc2c(cc1C)OC(=O)CC2", "Assigned class": "inactive"}
{"Compound": "Cc1cc2c(=Cc3ccc(N(C)C)cc3)c3ccccc3n2[n+]1C", "Assigned class": "active"}
{"Compound": "CCOC(=O)Nc1cc2c(c(N)n1)N=C(c1ccccc1)CN2", "Assigned class": "active"}
{"Compound": "COc1cc(/C=C/C(=O)CC(=O)/C=C/c2cc(C)c(O)c(OC)c2)cc(C)c1O", "Assigned class": "inactive"}
{"Compound": "CC(=O)NC1C(OCc2ccccc2)OC(CO)C(O)C1OCC(=O)NC(C)C(=O)NC(CCC(=O)NCCCCCC(=O)Nc1ccc2c(c1)CN1C(=O)c3ccccc3C1=N2)C(N)=O (configuration not stated)", "Assigned class": "inactive"}
